- system under test: endoxifen-responsive dominant negative Zap70 polypeptide including an ER(T2) domain having a G400V mutation (Homo sapiens, UniProt P03372, G400V/L544A/M543A)
- Sequence (P03372 with tags, fused parts or gaps G400V/M543A/L544A): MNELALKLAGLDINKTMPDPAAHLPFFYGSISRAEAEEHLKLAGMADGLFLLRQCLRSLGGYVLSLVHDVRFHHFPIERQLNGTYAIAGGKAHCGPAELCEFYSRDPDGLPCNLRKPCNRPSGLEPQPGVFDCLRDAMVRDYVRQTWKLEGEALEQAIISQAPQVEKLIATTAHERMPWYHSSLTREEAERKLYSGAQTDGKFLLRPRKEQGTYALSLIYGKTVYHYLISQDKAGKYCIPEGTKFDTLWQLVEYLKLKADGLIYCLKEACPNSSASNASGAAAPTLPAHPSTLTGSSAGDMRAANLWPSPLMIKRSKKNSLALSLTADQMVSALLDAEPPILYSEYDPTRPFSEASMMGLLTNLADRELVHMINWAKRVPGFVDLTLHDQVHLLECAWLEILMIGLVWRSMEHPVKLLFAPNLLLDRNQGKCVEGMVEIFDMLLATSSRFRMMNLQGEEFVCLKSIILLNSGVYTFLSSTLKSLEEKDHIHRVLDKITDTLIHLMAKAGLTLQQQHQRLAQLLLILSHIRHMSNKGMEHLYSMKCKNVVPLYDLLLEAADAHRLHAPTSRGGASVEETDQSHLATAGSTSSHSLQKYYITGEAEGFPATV
- assay notes: Endoxifen pIC50 in NFAT-Luciferase reporter assay, G400V construct (Example 8)
- assay setup: Jurkat E6.1 cells, 10 ng G400V construct, 1:30 Immunocult CD3/CD28/CD2, 19 hours

compound | quantity unit | IC50
CC/C(=C(\c1ccc(O)cc1)c1ccc(OCCNC)cc1)c1ccccc1 [endoxifen] | nM | 6.31

====

- system under test: endoxifen-responsive dominant negative Zap70 polypeptide including an ER(T2) domain having a G400L mutation (Homo sapiens, UniProt P03372, G400L/L544A/M543A)
- Sequence (P03372 with tags, fused parts or gaps G400L/M543A/L544A): as the sequence (P03372 with tags, fused parts or gaps G400V/M543A/L544A) above, with V415L counted along it
- assay notes: Endoxifen pIC50 in NFAT-Luciferase reporter assay, G400L construct (Example 8)
- assay setup: Jurkat E6.1 cells, 10 ng G400L construct, 1:30 Immunocult CD3/CD28/CD2, 19 hours

compound | IC50
CC/C(=C(\c1ccc(O)cc1)c1ccc(OCCNC)cc1)c1ccccc1 [endoxifen] | 1.58 nM
